Source of measurements: ChEMBL document CHEMBL1125209

In this section we review reported EC50 values for a set of compounds.
Species on record: Cavia porcellus
Procedure Summary: Effective concentration for hydrolysis of phosphoinositide in guinea pig pancreatic Acini
Type: functional
*1 amine or outer side, *2 acyl side, *3 side chain or, on linkers, in order; H or OH if unused. Where a SMILES comes first, the peptide text is derived from it. Side-chain parts run from the residue outwards. The star is where a group is joined. NH(1-naphthyl) = c1ccc2c(N*)cccc2c1; NH(2,6-Me2-phenyl) = Cc1cccc(C)c1N*; NH(2-Me-phenyl) = Cc1ccccc1N*; Boc = CC(C)(C)OC(=O)*; CO = O=C([*:1])[*:2]
Measured Metric: EC50

Compound	Observed
Cc1cccc(C)c1NC(=O)NCCCC[C@H](NC(=O)[C@H](Cc1c[nH]c2ccccc12)NC(=O)OC(C)(C)C)C(=O)N[C@@H](CC(=O)O)C(=O)N[C@@H](Cc1ccccc1)C(N)=O (Boc-WK([CO-NH(2,6-Me2-phenyl)])DF-NH2)	910 nM
CC(C)(C)OC(=O)N[C@@H](Cc1c[nH]c2ccccc12)C(=O)N[C@@H](CCCCNC(=O)Nc1cccc2ccccc12)C(=O)N[C@@H](CC(=O)O)C(=O)N[C@@H](Cc1ccccc1)C(N)=O (Boc-WK([CO-NH(1-naphthyl)])DF-NH2)	14 nM
Cc1ccccc1NC(=O)NCCCC[C@H](NC(=O)[C@H](Cc1c[nH]c2ccccc12)NC(=O)OC(C)(C)C)C(=O)N[C@@H](CC(=O)O)C(=O)N[C@@H](Cc1ccccc1)C(N)=O (Boc-WK([CO-NH(2-Me-phenyl)])DF-NH2)	12 nM
